The entries below are paired with their reported apparent KD of MS2 coat protein.
Test system: MS2 coat protein
Experiment: apparent KD of MS2 coat protein; designed switch direction (-1 OFF switch, 1 ON switch): -1; higher = weaker reporter binding
Conditions: Eterna round: R95; input ligand: none
Parameter: apparent KD of MS2 coat protein (nM)

Ordered Residues	Assay Result
UUUUAACAUGAGGAUCACCCAUGUGAGGAUAUCGAAUUUUAUAUUAAUAUUAAUAAAACGAGAAGGCACAUUUU [JMF 8] (puzzle: Exclusion 1)	49.6
GGAAUACAUGAGGAUCACCCAUGUAAGGAUAUGCUGAAUAACACGGAAUUAACGUGCAGCAGAAGGUACAAAGG [Mat - Mod of my Eli Mod D43] (puzzle: Exclusion 1)	113
UAUACACAUGAGGAUCACCCAUGUGAGGAUAUGUACAACAACAAGACGGAAAAAAAAUACAGAAGGCACAAAUA [JR_Exclusion1_Sub028] (puzzle: Exclusion 1)	32.4
UUUAAUUUUUUUUUUUUACAAGCUUUUUGCUCGUCUUAUACAUGAGGAUCACCCAUGUGGGUGAGAGAUAAAUUAUC [JMF 14] (puzzle: Sensor v3, turn-off variant 2)	64.2
GAUUAUGCGAGCUUUAGGGACAUGAGGAUCACCCAUGUUCGUCUUAUUAGUCUAAGUACACUGACAUACCUAAAUCU [JMF 61] (puzzle: Sensor v3, turn-off variant 1)	12.4
UUUAAUUUUUUUUUUUUACAAGCUUUUUGCUCGUCUUAUACAUGAGGAUCACCCAUGUGGAUGGGAGGUAAAUUAUC [JMF 74] (puzzle: Sensor v3, turn-off variant 2)	25.3
GUAGAGUAAGGAUAUUGUGAAUAGGAUAGAAUGGUUAGAAACGAGAAGGUACAUGAGGAUCACCCAUGUAAUGU [Excluse me!!!! 22 - Jieux - Exclusion 4] (puzzle: Exclusion 4)	24.4
AGUACUAACACGUGUGUGUUAGUACAAUAAGCUUGUGAAACAUGAGGAUCACCCAUGUCCUCAUAAGCUCGUCUUAU [salish99_TOv2_r3_074] (puzzle: Sensor v3, turn-off variant 2)	15
AAGUACUACAAGCUUCGGGACAUGAGGAUCACCCAUGUUCGUCUUAUUGAUCUAGGUACGCUGACGUACCUAGAUCA [Mat - Sensor v3 - turn-off var 1 - JL Mod - D12] (puzzle: Sensor v3, turn-off variant 1)	14.7
AGACAGUCAGGAUAUACAUGAGGAUCACCCAUGUUAAGAAGAGAAAGGGCAGGAAGAGGUAGAAGGGACAAGAA [JR_Exclu3_Sub033] (puzzle: Exclusion 3)	29.5

---

System: K4 kissing-loop RNA reporter;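 further: bound reporter read as fluorescence of individual clusters on recovered sequencing chips by microscopy, with normalized cluster intensities fitted with a binding model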
Test: apparent KD of K4 kissing-loop reporter; higher = weaker reporter binding
Details: Eterna round: R107; input ligand: FMN 200 uM
The entries below are paired with their reported apparent KD of K4 kissing-loop reporter.

Ordered Residues	System Under Test	apparent KD of K4 kissing-loop reporter
UAAUUUAUGUCUUUAAUUUUAUUAUCAGAUACCAGUGAUUUAUGACACCCUUGGCAGCUGUAUUGAGUGAUGUUCUUAUAUUAAA [JR_Nu_ExcTheophyA_Sub023]	K4 kissing-loop RNA reporter	111 nM
UGUAUGUGAUUUGAUACCAGACCAGCUGGUGGAAUCUGAGUGAUGUUCAGGUAGGUUUGGGUCCCUUGGCAGCAAAUCGCAUACU [KL-SSTheoB27]	K4 kissing-loop RNA reporter	203 nM
UAUAGCGUCAGAAGGAGCGUGAGUAUAACAUGGCUGGAGUGAUGUUCCAGGAGUUAAUACUCACAGGUAGGUCGCUGACUCCUGG [Arg B SS t2]	K4 kissing-loop RNA reporter	173 nM
GGAUAGGACAGAGGAUAUGGUAGCUAGGCAAGAAUAACUUGUCUAGCAUCCAUGAGGAGUGAUGUUCCAGAAGGCUGUCCUAUCG [FmnBX 5 - #SwitchBubble #StaticStem]	K4 kissing-loop RNA reporter	235 nM
AGUCCACUCUAAAGAGUGGACCUAAGGGAUACCAGUGAUGUUGGUCACCCUUGGCAGCCCGCUGUCAUCGAUAAAGAUGGCAGUA	K4 kissing-loop RNA reporter	125 nM
UGACAUUGCUCAGAUACCAGACUUGAGGAUCACCCAAGUGCCAAAUAAACGUACAUAAAAGUCCCUUGGCAGCUGAGCAAUGUCU [TheoBX 11]	K4 kissing-loop RNA reporter	72.9 nM
UGUGAUGAGUAGAGUGAUGUUUUGAAGGAUACCAGAGUGUUGUUAUUCCCUUGGCAGCUUGAGUGAUGUUUGAUGUUGUUGUAGU [zizmullin]	K4 kissing-loop RNA reporter	303 nM
GCGAUUCAGUGAUGUUGGAAAUACAGGGAUACCAGCCGAGAAUAAGGCCCUUGGCAGCUUAAUAGGAAAGAACUAAGUAAGACGC [Theophylline A Same State; Euphoria Solution 2]	K4 kissing-loop RNA reporter	574 nM
UGAUAGGACAGAAGGAGCGGUAGUGAUGUUACCAAAAGGCUAAGGUGUCAAAAGACACCCUACCAGGUAGGUCGCUGUCCUAUCU	K4 kissing-loop RNA reporter	131 nM
GUUACGCAUGGAAGGAGCGCAGGCUCAACAAAUAGCUCAGUGAUGUUGAGCAUAUUAAAUCUGCAGGUAGGUCGCCAUGUGUAAC [Ex Arginine B K4 24]	K4 kissing-loop RNA reporter	498 nM
CCACCUCCAGAAGGAUAUAGUGUAUCAGAUUCACUCGAGUGCCUUAAACUAAGGAGUGAUGUUCCGCUAGAAGGUCUCGUAGGCA [theeternabot_exclusion_KL_FMN_B_45]	K4 kissing-loop RNA reporter	191 nM
AAUACUAUCAGAAGGAGCGUGGAAUAUUCAUCUGUAUCUAAUACGAGUGAUGUUCGUAAUUCACAGGUAGGUCGCUGAUUAAUAC [whbob_Ex_Arginine_B_2th158]	K4 kissing-loop RNA reporter	265 nM

The origin of these recorded values is the supplement of paper PMC9170038.
